Assay system U251 CNS; read-out recorded as GI50.

// solved cases for GI50 follow
> print(dat)
                                   molecule  observation.type  value.reported
1  Cc1cc(Nc2nc(N[C@@H](C)c3ncc(F)cn3)ncc2Cl)n[nH]1              GI50         24.5 µM
2  Nc1nc(/C=C\c2ccccc2)nc(N2CCN(c3ccccc3)CC2)n1              GI50         24.3 µM
3  COC(=O)c1oc2c(C(=O)/C=C/c3ccc(OC)cc3)c(OCCN(C)C)ccc2c1C              GI50         5.72 µM

API: the following record is the query input.
Ask: Report GI50 for N#Cc1cnc(Nc2cc(NC[C@H]3CNCCO3)c(C(F)(F)F)cn2)cn1 please.
Result: 21.8 µM
